Origin of values: ChEMBL document CHEMBL1156075

# Tested on: Cynomolgus monkey
# condition.details: in vivo, iv, 1 mg/kg
property.name: AUC (ng·h/mL)

[A] CC(C)CC[C@]1(C)CN(C2CCC2)C(=O)C(C2=NS(=O)(=O)c3cc(NS(C)(=O)=O)ccc3N2)=C1O
[B] CS(=O)(=O)Nc1ccc2c(c1)S(=O)(=O)N=C(C1=C(O)[C@@H]3CCC[C@@H]3N(Cc3ccc(F)cc3)C1=O)N2
Q. Endpoint returns whichever of A and B has the numerically higher AUC. Answer by quoting the chosen item's label.
A. B

###

Let's look at some compounds and their measured CC50 at 72 h.
# measurement.protocol: in vitro
# condition.details: human, Huh7/C24 cells
# Description: Cytotoxicity against human Huh7/C24 cells after 72 hrs by bDNA assay

Illustrative cases are given below, each with its answer.
- C#CC[C@]1(C)CN(C2CCCC2)C(=O)C(C2=NS(=O)(=O)c3cc(NS(C)(=O)=O)ccc3N2)=C1O: > 33 µM
- CC(C)(C)CC[C@]1(C)CN(C2CC2)C(=O)C(C2=NS(=O)(=O)c3cc(NS(C)(=O)=O)ccc3N2)=C1O: > 10 µM

Q. Endpoint output: CC50 at 72 h of CS(=O)(=O)Nc1ccc2c(c1)S(=O)(=O)N=C(C1=C(O)C3(CCCC3)CN(Cc3ccc(F)cc3)C1=O)N2 . Value?
A. > 33 µM

Q. Endpoint output: CC50 at 72 h of CS(=O)(=O)Nc1ccc2c(c1)S(=O)(=O)N=C(C1=C(O)[C@@H]3CCC[C@@H]3N(Cc3ccc(F)cc3)C1=O)N2 . Value?
A. > 100 µM

Q. Endpoint output: CC50 at 72 h of CC[C@H]1CC(O)=C(C2=Nc3ccc(NS(C)(=O)=O)cc3S(=O)(=O)N2)C(=O)N1Cc1ccc(F)cc1 . Value?
A. > 1 µM
